B1: SAT2 (parent)
chain: LTEAEGWHFFCFQGEATRKLAGK

variants of: B1; assay: protein stability index of a GFP-peptide fusion (GPS, HEK-293T) (PSI 1-6); higher = more stable; settings: c terminus: native;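 note: lentivirally expressed fusions sorted by FACS into six bins by GFP to DsRed ratio, PSI derived from sequencing read proportions per bin multiplied by bin number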
Short version: protein stability index at least 2 is class 1, less is class 0.

Here are 3 variants together with their reported answers.
>>> classlabel("K23H")
"class 0"
>>> classlabel("A21S")
"class 1"
>>> classlabel("Q13N")
"class 1"

Q) hey, is protein stability index for this one >= 2? G14H
A) class 0

Q) hey, is protein stability index for this one >= 2? Q13K
A) class 1

Q) hey, is protein stability index for this one >= 2? Q13P
A) class 1

Q) hey, is protein stability index for this one >= 2? G6P
A) class 1

Q) hey, is protein stability index for this one >= 2? G14C
A) class 0

Q) hey, is protein stability index for this one >= 2? L1Q
A) class 1

Q) hey, is protein stability index for this one >= 2? G14Y
A) class 1

Q) hey, is protein stability index for this one >= 2? F12H
A) class 1

Q) hey, is protein stability index for this one >= 2? G6C
A) class 0

Q) hey, is protein stability index for this one >= 2? H8F
A) class 0

Q) hey, is protein stability index for this one >= 2? A21K
A) class 1

Q) hey, is protein stability index for this one >= 2? L1I
A) class 0

Q) hey, is protein stability index for this one >= 2? G22Y
A) class 1
